experiment: Cytotoxicity against human SKGT4 cells assessed as inhibition of cell growth measured after 72 hrs by MTT assay; assay type: functional, cell-based; conditions: SKGT4, 72 h
Test readout: IC50
Your reply should be a number followed by the unit it is expressed in.

{"Smiles str": "CC(=O)OC1=C(c2cccc3ncccc23)Oc2cc3ccccc3cc2-n2cccc21", "Test readout": "IC50", "Value measured": "510 nM"}

Continue with the molecule presented below.
INPUT: Specify reported IC50 for the molecule shown: `CN1CCN(C(=O)OC2=C(c3cccc4ncccc34)Oc3cc4ccccc4cc3-n3cccc32)CC1`
OUTPUT: 550 nM
